- Tested on: DU-145
- EXPERIMENTAL DETAILS: NCI tumour cell line growth inhibition, 48 h
Active and inactive are the calls of the source. No stated cut-off is given here; in the data, active = GI50 up to about 1.1 µM and inactive = higher. Where a SMILES comes first, the peptide text is derived from it. The star is where a group is joined. Boc = CC(C)(C)OC(=O)*; Bn = c1ccc(C*)cc1
The categories you may choose from are T for active, F for inactive

1. C=CC(=O)N1C/C(=C\c2ccc(Cl)cc2)C(=O)/C(=C/c2ccc(Cl)cc2)C1 : T

Field: outcome | Entry: OC1C#CCSCC#C/C=C\1 (stereo unspecified)
F

Cool, now NC(=O)C(=CN1CC(=O)NC1=S)C(N)=O
F

Then this compound: COC(=O)C(CC(C)C)NC(=O)CNC(=O)C(Cc1ccc(OCc2ccccc2)cc1)NC(=O)C(COCc1ccccc1)NC(=O)OC(C)(C)C (stereo unspecified) (Boc-S(Bn)Y(Bn)GL-OMe; configuration not given here)
F

What do we get for CC(OC(C)(C)C)[C@H](NC(=O)OCc1ccccc1)C(=O)NC(OCc1ccccc1)[C@H]1COC(C)(C)O1 (stereo partly specified) ?
F

Similarly, CC[C@@]1(O)C(=O)OCc2c1cc1n(c2=O)Cc2c-1nc1ccccc1c2/C=N\NC(=O)C(N)Cc1c[nH]cn1 (stereo partly specified) ?
T

Now the compound COc1cccc([C@@H]2C/C(=N\NC(=O)C(=O)N[C@@H](C)c3ccccc3)c3ccccc3N2)c1
F

Param item: CCCCCCc1nn2c(-c3ccc(C)cc3)nnc2s1
F

Please do the same for O=C(O)CN1CCN(CC(=O)O)CCN(CC(=O)O)CCN(CC(=O)O)CC1 as well.
F

// query: N#C/C(=C/n1c(=S)[nH]c2ccccc21)C(N)=O
F

Follow-up item: CSC1(C(=O)O)C2CCC3C2CCC31 (stereo unspecified)
F

Also need Nc1nc(O)c2[nH]nnc2n1 , thanks.
T

Moving on to COc1ccc2c(c1)[n+]([O-])c1cc(C#N)ccc1[n+]2[O-]
T

Now consider CN(C)N1C(=O)SCC(c2ccccc2)(c2ccccc2)C1=O .
F

Try the compound O=S(=O)(CCCCl)SCCCCl
F

// repeat for O=S1(=O)CCN(Cc2ccccc2)/C1=N\S(=O)(=O)c1ccc(Cl)cc1 and report
F

Now give it for O=C(O)C(SC1=NC(=O)C2(NN1)c1ccccc1-c1ccccc12)SC1=NC(=O)C2(NN1)c1ccccc1-c1ccccc12 too.
F
